MEASURED TARGET: Adenosine receptor A1 (Rattus norvegicus)
Sequence (P25099 whole entry): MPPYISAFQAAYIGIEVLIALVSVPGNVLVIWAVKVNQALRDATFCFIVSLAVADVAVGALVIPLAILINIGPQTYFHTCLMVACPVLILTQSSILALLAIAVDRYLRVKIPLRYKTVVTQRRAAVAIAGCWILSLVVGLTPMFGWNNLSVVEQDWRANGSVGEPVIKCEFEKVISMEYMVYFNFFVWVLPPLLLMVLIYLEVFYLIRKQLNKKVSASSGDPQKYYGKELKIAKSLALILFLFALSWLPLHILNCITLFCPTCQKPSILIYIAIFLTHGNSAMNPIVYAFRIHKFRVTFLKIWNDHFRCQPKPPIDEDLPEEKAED
RUN DESCRIPTION: biochemical
Description: Affinity for adenosine A1 receptor assayed in a competition assay in rat brain using [3H]-CHA as radioligand
READOUT NAME: pKi
On this scale, pKi is minus log10 of a concentration expressed in M (mol/L).

Problem: What value of pKi has been reported for the following compound? CCNC(=O)[C@H]1O[C@@H](n2cnc3c(N)nc(C#CCCO)nc32)[C@H](O)[C@@H]1O
Result: 7.33

Problem: What value of pKi has been reported for the following compound? CCNC(=O)[C@H]1O[C@@H](n2cnc3c(N)nc(C#CC(C)O)nc32)[C@H](O)[C@@H]1O (some centres undefined)
Result: 7.95

Problem: What value of pKi has been reported for the following compound? C#Cc1nc(N)c2ncn([C@@H]3O[C@H](C(=O)NCC)[C@@H](O)[C@H]3O)c2n1
Result: 7.45

Problem: What value of pKi has been reported for the following compound? CCNC(=O)[C@H]1O[C@@H](n2cnc3c(N)nc(C#CC(OCC)OCC)nc32)[C@H](O)[C@@H]1O
Result: 6.18

These measurements were taken from ChEMBL document CHEMBL1127534.
